Tested on: RBL-2H3 cells
Assay: Anti-allergy test: A23187-induced β-hexosaminidase release
Assay type: cell-based
Settings: 100 μM/mL
Label scheme for Percentage of inhibiting A23187-induced β-hexosaminidase release (%) 100 μM/mL: lower than 7% is F, 7% and above is T.

Below, 4 molecules whose answers are already recorded.
1) O=Cc1ccc(CO)n1Cc1ccccc1: T
2) O=Cc1cc[n+]([O-])cc1Cc1ccccc1: F
3) COCc1ccc(C=O)n1Cc1cccc(OC)c1: F
4) COc1cccc(Cn2c(C=O)ccc2CO)c1: F

Please tell me: is the molecule CC(=O)[C@@H]1CCC(=O)N1Cc1ccccc1 at or over 7% in terms of Percentage of inhibiting A23187-induced β-hexosaminidase release (%) 100 μM/mL?
F

###

System: human CD34-positive endothelial progenitor cells (EPC)
Assay: Pro-angiogenic test: EPC cell growth
Type: cell-based
Details: 50 μM of each isolated compound, 48 hours, mean±SEM
READOUT TYPE: Cell growth rate (%) EPC
Use % as the unit, but write only the number.

Example cases with answers are listed next.
1. COc1cccc(Cn2c(C=O)ccc2CO)c1: 103
2. COCc1ccc(C=O)n1Cc1ccccc1: 99
3. O=Cc1cc[n+]([O-])cc1Cc1ccccc1: 105
4. CC(=O)[C@@H]1CCC(=O)N1Cc1ccccc1: 99
5. N#CCc1cccc(O)c1 [Compound 8, 3-hydroxy-1-cyanomethylbenzene]: 103

Would you kindly look at the next entry?
I am curious: what Cell growth rate (%) EPC value has been reported for O=Cc1ccc(CO)n1Cc1ccccc1 ?
104

###

Tested on: RBL-2H3 cells
Experiment: Anti-allergy test: antigen-induced β-hexosaminidase release
Type: cell-based
Conditions: 100 μM/mL
Label scheme for Percentage of inhibiting antigen-induced β-hexosaminidase release (%) 100 μM/mL: lower than 10% is label 0, 10% and above is label 1.

1) O=Cc1cc[n+]([O-])cc1Cc1ccccc1: label 0

Please tell me: is the molecule O=Cc1ccc(CO)n1Cc1ccccc1 at or over 10% in terms of Percentage of inhibiting antigen-induced β-hexosaminidase release (%) 100 μM/mL?
label 0

Would you mind doing COCc1ccc(C=O)n1Cc1cccc(OC)c1 as well?
label 1

Would you mind doing COCc1ccc(C=O)n1Cc1ccccc1 as well?
label 1

Would you mind doing CC(=O)[C@@H]1CCC(=O)N1Cc1ccccc1 as well?
label 0

###

System: RBL-2H3 cells
Assay: Anti-allergy test: antigen-induced β-hexosaminidase release
Format: cell-based
Conditions: Table 4, isolated compounds; concentration not given
Label scheme for Antigen-induced β-hexosaminidase release Inhibition rate (%): lower than 10% is Not met, 10% and above is Met.

1. COCc1ccc(C=O)n1Cc1cccc(OC)c1 [Compound 3]: Met
2. O=Cc1cc[n+]([O-])cc1Cc1ccccc1 [Compound 7]: Not met

Please tell me: is the compound CC(=O)[C@@H]1CCC(=O)N1Cc1ccccc1 [Compound 1, (5S)-acetyl-1-benzylpyrrolidine-2-ketone] at or over 10% in terms of Antigen-induced β-hexosaminidase release Inhibition rate (%)?
Not met

Would you mind doing COCc1ccc(C=O)n1Cc1ccccc1 [Compound 5] as well?
Met

Would you mind doing O=Cc1ccc(CO)n1Cc1ccccc1 [Compound 6] as well?
Not met

###

Test system: RBL-2H3 cells
Experiment: Cell viability of RBL-2H3 cells (MTT)
Conditions: Table 6, isolated compounds, head prints 200 μg/ml
READOUT TYPE: Viability of RBL-2H3 cells at 200 μg/ml (%)
Use % as the unit, but write only the number.

Record lookup: for RBL-2H3 cells, what Viability of RBL-2H3 cells at 200 μg/ml belongs to COCc1ccc(C=O)n1Cc1cccc(OC)c1 [Compound 3] ?
95.0

Would you mind doing CC(=O)[C@@H]1CCC(=O)N1Cc1ccccc1 [Compound 1, (5S)-acetyl-1-benzylpyrrolidine-2-ketone] as well?
95.3

Would you mind doing O=Cc1ccc(CO)n1Cc1ccccc1 [Compound 6] as well?
100.0

Would you mind doing N#CCc1cccc(O)c1 [Compound 8, 3-hydroxy-1-cyanomethylbenzene] as well?
97.7

Would you mind doing COCc1ccc(C=O)n1Cc1ccccc1 [Compound 5] as well?
94.0

Would you mind doing COc1cccc(Cn2c(C=O)ccc2CO)c1 [Compound 4] as well?
96.0

###

Test system: RBL-2H3 cells
Assay: Anti-allergy test: A23187-induced β-hexosaminidase release
Type: cell-based
Details: Table 4, isolated compounds; concentration not given (values equal 100 μM column of Table 6)
Marks after values point to notes of the source that are not given here.
READOUT TYPE: A23187-induced β-hexosaminidase release Inhibition rate (%)

1. COc1cccc(Cn2c(C=O)ccc2CO)c1: 6.7 ± 1.4%
2. COCc1ccc(C=O)n1Cc1cccc(OC)c1: 4.7 ± 0.7%
3. O=Cc1ccc(CO)n1Cc1ccccc1: 9.7 ± 2.2%
4. COCc1ccc(C=O)n1Cc1ccccc1: 51.3 ± 4.6*** %

I am curious: what A23187-induced β-hexosaminidase release Inhibition rate (%) value has been reported for O=Cc1cc[n+]([O-])cc1Cc1ccccc1 ?
6.0 ± 0.8%
